- STUDY SYSTEM: Mitogen-activated protein kinase kinase kinase kinase 1 (Homo sapiens, UniProt Q92918)
- Sequence (Q92918 whole entry): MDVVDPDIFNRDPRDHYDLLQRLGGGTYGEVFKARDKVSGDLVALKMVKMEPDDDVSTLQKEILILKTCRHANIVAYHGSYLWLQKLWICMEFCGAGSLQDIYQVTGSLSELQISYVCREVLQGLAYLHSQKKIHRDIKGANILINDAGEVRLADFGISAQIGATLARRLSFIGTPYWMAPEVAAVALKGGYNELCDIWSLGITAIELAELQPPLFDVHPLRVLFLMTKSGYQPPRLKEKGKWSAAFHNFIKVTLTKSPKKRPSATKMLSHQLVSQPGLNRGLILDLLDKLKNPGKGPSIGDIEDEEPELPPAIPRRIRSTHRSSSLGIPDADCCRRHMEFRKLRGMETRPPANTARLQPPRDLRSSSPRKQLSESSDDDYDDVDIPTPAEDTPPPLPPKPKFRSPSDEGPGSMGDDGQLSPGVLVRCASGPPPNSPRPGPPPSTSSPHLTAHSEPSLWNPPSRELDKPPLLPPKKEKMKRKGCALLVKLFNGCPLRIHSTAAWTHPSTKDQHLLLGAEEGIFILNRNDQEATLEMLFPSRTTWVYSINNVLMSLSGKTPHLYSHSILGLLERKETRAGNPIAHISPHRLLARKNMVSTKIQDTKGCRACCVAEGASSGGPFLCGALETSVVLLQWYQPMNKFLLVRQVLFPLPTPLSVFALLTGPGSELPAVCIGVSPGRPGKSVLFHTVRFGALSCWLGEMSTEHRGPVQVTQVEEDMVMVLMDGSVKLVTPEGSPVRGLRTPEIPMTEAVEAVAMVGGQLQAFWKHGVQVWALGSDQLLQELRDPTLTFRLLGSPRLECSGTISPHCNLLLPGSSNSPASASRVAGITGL
- EXPERIMENT SUMMARY: Biochemical Enzyme Assay

{"columns": ["RECORD SMILES", "IC50"],
 "data": [
  ["Cc1ccn2c(-c3ccc(Nc4ccc(N5CCO[C@@H](CP)C5)cn4)c4c3CNC4=O)cnc2c1F", "< 100 nM"],
  ["CNC1CN(c2cccc(Cc3cnc(-c4ccnc5c4ccn5C)c4c3C(=O)NC4)n2)C1", "< 100 nM"],
  ["Cn1ccc2c(-c3ncc(Nc4ccc(N5C[C@H]6COC[C@@H]5C6)cn4)c4c3CNC4=O)ccnc21", "< 100 nM"]
]}

FYI, the data here is from BindingDB's records for patent US11034694.
